The values you see were collected from ChEMBL document CHEMBL1201862.

GI50 values, listed per item
- Tested on: SR
- Assay overview: NCI tumour cell line growth inhibition, 48 h
The source made the active and inactive calls. Cut-off read from the data, not from the text of the source: active = GI50 up to about 1.1 µM and inactive = higher. Square brackets hold non-standard residues; d marks the D form. Peptide text beside a SMILES is read from it. * marks the point of attachment. Phe(4-NO2) = N[CH](Cc1ccc([N+](=O)[O-])cc1)C(=O)O; Boc = CC(C)(C)OC(=O)*

>  <Molecule>
Nc1ccccc1C(=O)CCc1c[nH]c2ccccc12

>  <GI50>
> 100 µM (inactive)

$$$$
>  <Molecule>
CNC(=O)CCC(NC(=O)OC(C)(C)C)C(=O)NC(Cc1ccc([N+](=O)[O-])cc1)C(=O)NCC(=O)NC (centres undefined) (Boc-Glu(NHMe)-[Phe(4-NO2)]-Gly-NHMe; configuration not given here)

>  <GI50>
> 100 µM (inactive)

$$$$
>  <Molecule>
C#C[C@]1(O)CC[C@H]2[C@@H]3CCC4=C/C(=N/OC(=O)c5cccc6cc7ccccc7nc56)CC[C@@H]4[C@H]3CC[C@@]21CC

>  <GI50>
44.4 µM (inactive)

$$$$
>  <Molecule>
Oc1cc2cc(-c3ccccc3)[nH]c2c2ccccc12

>  <GI50>
> 57 µM (inactive)

$$$$
>  <Molecule>
CCC(=O)NI1OC(=O)c2ccccc21

>  <GI50>
36.9 µM (inactive)

$$$$
>  <Molecule>
COC(=O)[C@]12CCC(=O)N1[C@H](C(=O)O)Cc1c2[nH]c2ccccc12

>  <GI50>
> 100 µM (inactive)

$$$$
>  <Molecule>
CCC1(c2ccc(OC)c(OC)c2)CCN(S(=O)(=O)c2ccc(C)cc2)C1 (centres undefined)

>  <GI50>
> 10 µM (inactive)

$$$$
>  <Molecule>
CC1(C)[C@@H]2CC[C@@]1(C)CN(CCC[N+](C)(C)C)C2

>  <GI50>
> 100 µM (inactive)

$$$$
>  <Molecule>
[O-][S+](Nc1ccccc1)c1ccc(Cl)cc1 (centres undefined)

>  <GI50>
16.4 µM (inactive)

$$$$

---

GI50 values, listed per item
- System: HL-60
- Assay overview: NCI tumour cell line growth inhibition, 48 h
Calls of active or inactive are those of the source. Cut-off read from the data, not from the text of the source: active = GI50 up to about 1.1 µM and inactive = higher.
Property name: GI50

>  <Compound>
Cc1cc(Cl)cc2c1NC(=O)/C2=N\Nc1ccccc1[N+](=O)[O-]

>  <Result>
> 100 µM (inactive)

$$$$
>  <Compound>
NNC(=O)c1cc([N+](=O)[O-])ccc1NC(=O)C12CC3CC(CC(C3)C1)C2

>  <Result>
3.09 µM (inactive)

$$$$
>  <Compound>
CCCC(C)NC(=O)c1ccc(N(C)Cc2cnc3nc(N)nc(N)c3n2)cc1 (stereo not given)

>  <Result>
16.4 µM (inactive)

$$$$
>  <Compound>
CC(C)(C)C1CCC2(CC1)CCN(CCCN1CCOCC1)CC2

>  <Result>
13.1 µM (inactive)

$$$$
>  <Compound>
O=C(/C=C/c1ccc[nH]1)c1ccccc1

>  <Result>
41.2 µM (inactive)

$$$$
>  <Compound>
COC1/C=C\OC2(C)Oc3c(C)c(O)c4c(O)c(c(CN(C)C)c(O)c4c3C2=O)NC(=O)/C(C)=C\C=C/C(C)C(O)C(C)C(O)C(C)C(OC(C)=O)C1C (stereo not given)

>  <Result>
18.5 µM (inactive)

$$$$
>  <Compound>
CCO[C@]12CCC[C@H]1[C@@H]1C(=O)c3ccccc3C(=O)C1=C(C)O2

>  <Result>
41.7 µM (inactive)

$$$$
>  <Compound>
Sc1nnc(CCCCCCCCc2nnc(S)o2)o1

>  <Result>
> 100 µM (inactive)

$$$$
>  <Compound>
CC(=O)O[C@@H]1C(=O)N(c2ccccc2)[C@@H]1c1cc2ccccc2c2ccccc12

>  <Result>
26.4 µM (inactive)

$$$$
>  <Compound>
N#Cc1c2c(c(Nc3ccc(F)cc3)n3c1nc1ccccc13)CCC2

>  <Result>
3.96 µM (inactive)

$$$$

---

- Test system: PC-3
- Assay overview: NCI tumour cell line growth inhibition, 48 h
The source made the active and inactive calls. No stated cut-off is given here; in the data, active = GI50 up to about 1.1 µM and inactive = higher.
Outcomes: active, inactive

>  <Molecule>
C/C(=C/CC[C@](C)(OC1OC(CO)C(O)C(O)C1OC1OC(C)C(O)C(O)C1O)[C@H]1CC[C@]2(C)[C@@H]1CC[C@@H]1[C@@]3(C)CC[C@H](O)C(C)(C)[C@@H]3C[C@H](O)[C@]12C)CO (some centres undefined)

>  <Group label>
inactive

$$$$
>  <Molecule>
CC1(C)[C@@H]2CC[C@@]1(C)CN(CCC[N+](C)(C)C)C2

>  <Group label>
inactive

$$$$
>  <Molecule>
COc1cc(/C=N\O)cc(/C=N/O)c1O

>  <Group label>
inactive

$$$$
>  <Molecule>
c1ccc(-c2nnc(SCc3c[nH]c4ccccc34)n2-c2ccccc2)cc1

>  <Group label>
inactive

$$$$
>  <Molecule>
CC1(C)C2C=C(CCN3CCOCC3)CC1C2 (centres undefined)

>  <Group label>
inactive

$$$$
>  <Molecule>
CCOC(=O)C(O)(NC(=O)Nc1ccc(F)cc1)C(F)(F)F (centres undefined)

>  <Group label>
inactive

$$$$
>  <Molecule>
CCOS(C)(=O)=O

>  <Group label>
inactive

$$$$
>  <Molecule>
CNCCCNc1c2ccccc2nc2cccc([N+](=O)[O-])c12

>  <Group label>
active

$$$$
>  <Molecule>
O=C(O)CCNC(=O)c1cc(N(CCBr)CCBr)c([N+](=O)[O-])cc1[N+](=O)[O-]

>  <Group label>
inactive

$$$$

---

- Test system: SK-OV-3
- Assay overview: NCI tumour cell line growth inhibition, 48 h
Active and inactive are the calls of the source. No stated cut-off is given here; in the data, active = GI50 up to about 1.1 µM and inactive = higher. Where a SMILES comes first, the peptide text is derived from it. Bridges are numbered along the chain shown (N, C = ends). The star is where a group is joined. Cbz = O=C(OCc1ccccc1)*

>  <Molecule>
O=c1oc2ccccc2cc1-c1cc2ccccn2c1

>  <GI50>
> 100 µM (inactive)

$$$$
>  <Molecule>
Cc1c(C(=O)Nc2ccc(Cl)c(C(F)(F)F)c2)oc2cc(O)ccc2/c1=N\NC(N)=S

>  <GI50>
> 100 µM (inactive)

$$$$
>  <Molecule>
Cc1ccc(S(=O)(=O)N/N=C(\c2nc3ccc(Cl)cc3nc2O)C(O)c2cccc([N+](=O)[O-])c2)cc1 (stereo not given)

>  <GI50>
> 100 µM (inactive)

$$$$
>  <Molecule>
CCOC(=O)/C(=C\c1cccc(C)c1)C(C)=O

>  <GI50>
25.8 µM (inactive)

$$$$
>  <Molecule>
CCC(=O)C1=C(OC(C)=O)C2Cc3c(n(C)c4ccccc34)C(C1)N2C (stereo not given)

>  <GI50>
> 100 µM (inactive)

$$$$
>  <Molecule>
CCC(=O)C(CCN1CCC(N2C(=O)C(CCC#N)c3ccccc32)CC1)(c1ccccc1)c1ccccc1 (stereo not given)

>  <GI50>
15.5 µM (inactive)

$$$$
>  <Molecule>
Cc1cc2c(SCc3ccccc3Cl)nc(N)nc2nc1C

>  <GI50>
> 100 µM (inactive)

$$$$
>  <Molecule>
Nc1ccc(C(=O)NN2C(=O)C(Cl)C2c2ccc([N+](=O)[O-])cc2)cc1 (stereo not given)

>  <GI50>
14.1 µM (inactive)

$$$$
>  <Molecule>
COC(=O)[C@]12CCC(=O)N1[C@H](C(=O)O)Cc1c2[nH]c2ccccc12

>  <GI50>
> 100 µM (inactive)

$$$$
>  <Molecule>
CCOC(=O)C1=C(C)NC(=O)NC1c1ccc(OC)cc1OC (stereo not given)

>  <GI50>
> 100 µM (inactive)

$$$$
>  <Molecule>
O=C(NN1C(=O)C(Cl)C1c1cccc(O)c1)c1ccccc1O (stereo not given)

>  <GI50>
> 100 µM (inactive)

$$$$
>  <Molecule>
CN(C)CCNc1nc(-c2ccc3ccccc3c2)nc2[nH]cnc12

>  <GI50>
7.48 µM (inactive)

$$$$
>  <Molecule>
CCOC(=O)C1=C(Nc2cccc3ccccc23)OCC1=O

>  <GI50>
> 100 µM (inactive)

$$$$
>  <Molecule>
C[C@]12CC[C@H](OC(=O)Nc3ccccc3)CC1=CC[C@@H]1C2CC[C@]2(C)/C(=N/OC(=O)Nc3ccccc3)CCC12 (stereo not given in full)

>  <GI50>
> 100 µM (inactive)

$$$$
>  <Molecule>
CC(C)C1N2CCCCC2[C@@H]2c3[nH]c4ccccc4c3CCN12 (stereo not given in full)

>  <GI50>
> 100 µM (inactive)

$$$$
>  <Molecule>
O=C(CCCCCCCCC(=O)N1C(=O)CC(=O)N(c2ccccc2)C1=S)N1C(=O)CC(=O)N(c2ccccc2)C1=S

>  <GI50>
> 100 µM (inactive)

$$$$
>  <Molecule>
COc1ccc(/C=C/C(=O)Oc2cc(O)cc(O)c2)cc1

>  <GI50>
> 100 µM (inactive)

$$$$
>  <Molecule>
O=C(Nc1sccc1S(=O)(=O)c1ccc(Cl)cc1)c1ccc(F)cc1F

>  <GI50>
21.9 µM (inactive)

$$$$
>  <Molecule>
COc1ccc(C2SCC(=O)N2NC(=O)c2ccncc2)cc1F (stereo not given)

>  <GI50>
> 100 µM (inactive)

$$$$
>  <Molecule>
NCCO/C=C/C(N)C(=O)O (stereo not given) [AMINOETHOXYVINYLGLYCINE]

>  <GI50>
> 100 µM (inactive)

$$$$
>  <Molecule>
Cc1c2c(n3c(nc4ccccc43)c1C#N)NCC2

>  <GI50>
> 10 µM (inactive)

$$$$
>  <Molecule>
COc1nc(OC)c2c(=O)oc(-c3ccccc3)cc2n1

>  <GI50>
> 100 µM (inactive)

$$$$
>  <Molecule>
N#CC(/C(=N/NC(=O)C(=O)NN)C(=O)NC12CC3CC(CC(C3)C1)C2)c1ccccc1 (stereo not given)

>  <GI50>
> 100 µM (inactive)

$$$$
>  <Molecule>
C/C(=C/CC[C@](C)(OC1OC(CO)C(O)C(O)C1OC1OC(C)C(O)C(O)C1O)[C@H]1CC[C@]2(C)[C@@H]1CC[C@@H]1[C@@]3(C)CC[C@H](O)C(C)(C)[C@@H]3C[C@H](O)[C@]12C)CO (stereo not given in full)

>  <GI50>
> 100 µM (inactive)

$$$$
>  <Molecule>
CCN(CC)CCNC(=O)C1COc2ccc(-c3cc(=O)c4ccccc4o3)cc2O1 (stereo not given)

>  <GI50>
23 µM (inactive)

$$$$
>  <Molecule>
O=C(O)/C=C\C(=O)Nc1ccccn1

>  <GI50>
> 100 µM (inactive)

$$$$
>  <Molecule>
CCOS(C)(=O)=O [METHANESULFONIC ACID ETHYL ESTER]

>  <GI50>
> 100 µM (inactive)

$$$$
>  <Molecule>
CCCC(c1cc(C(C)(C)C)c(O)cc1C)c1cc(C(C)(C)C)c(O)cc1C

>  <GI50>
3.65 µM (inactive)

$$$$
>  <Molecule>
CCOC(=O)C(Cc1ccccc1)(Cc1ccc(O)cn1)NC(=O)c1ccccc1 (stereo not given)

>  <GI50>
30.6 µM (inactive)

$$$$
>  <Molecule>
CCCCCCc1cc2cc(C(=O)Nc3ccc(F)cc3)c(=N)oc2cc1O

>  <GI50>
2.58 µM (inactive)

$$$$
>  <Molecule>
CO[C@]12C#CC=CC#C[C@@H](O)[C@]3(CCC1)O[C@@]23c1cccc(O)c1

>  <GI50>
> 100 µM (inactive)

$$$$
>  <Molecule>
CNCCCNC(=S)Cn1cc(C)c(=O)[nH]c1=O

>  <GI50>
> 54.8 µM (inactive)

$$$$
>  <Molecule>
N#C/N=C(/NCCc1c[nH]c2ccccc12)Oc1ccccc1

>  <GI50>
> 100 µM (inactive)

$$$$
>  <Molecule>
N#Cc1c(-c2ccco2)cc(-c2ccccc2)nc1O

>  <GI50>
> 100 µM (inactive)

$$$$
>  <Molecule>
COC(=O)C1CCCCNC(=O)CCC(NC(=O)OCc2ccccc2)C(=O)N1 (stereo not drawn) (Cbz-Glu-Lys-OMe; lactam 1-2; configuration not given here)

>  <GI50>
56.1 µM (inactive)

$$$$
>  <Molecule>
COCC1OC(Sc2ccccc2)C(O)C(OC)C1OC (stereo not given)

>  <GI50>
> 100 µM (inactive)

$$$$
>  <Molecule>
O=S(=O)([C-]([I+]c1ccccc1)S(=O)(=O)C(F)(F)C(F)(F)C(F)(F)C(F)(F)F)C(F)(F)C(F)(F)C(F)(F)C(F)(F)F

>  <GI50>
16.7 µM (inactive)

$$$$
>  <Molecule>
O=C(O)CCNC(=O)c1cc(N(CCBr)CCBr)c([N+](=O)[O-])cc1[N+](=O)[O-]

>  <GI50>
> 100 µM (inactive)

$$$$
>  <Molecule>
O=C1C=CC2(C=C1)C[C@H](NC(=O)C(F)(F)F)C(=O)O2

>  <GI50>
> 100 µM (inactive)

$$$$
>  <Molecule>
CSc1nc(C#N)c(N)n1C

>  <GI50>
> 100 µM (inactive)

$$$$
